Entries and their MCC
assay: Cytotoxic action on Neuro 2A cells; type: cell-based; details: mouse, no attached cells observed in more than 2/3 of the whole cells, read-out: Cytotoxicity (B)

MOLECULE: COC(=O)CSC(=O)[C@]1([C@@H](O)C(C)C)NC(=O)[C@H](C)[C@@H]1O
MCC [µM]: 12.5
//
MOLECULE: CCOC(=O)CCSC(=O)[C@]1([C@@H](O)C(C)C)NC(=O)[C@H](C)[C@@H]1O
MCC [µM]: 3.12
//
MOLECULE: CC(C)[C@H](O)[C@@]1(C(=O)SCC(=O)O)NC(=O)[C@H](C)[C@@H]1O
MCC [µM]: 12.5
//
MOLECULE: CCCCSC(=O)[C@]1([C@@H](O)C(C)C)NC(=O)[C@H](C)[C@@H]1O
MCC [µM]: 12.5
//
MOLECULE: CC(C)[C@H](O)[C@@]1(C(=O)SCCN(C)C)NC(=O)[C@H](C)[C@@H]1O
MCC [µM]: 6.25
//
MOLECULE: CC(C)[C@H](O)[C@@]1(C(=O)Sc2ccc(O)cc2)NC(=O)[C@H](C)[C@@H]1O
MCC [µM]: 12.5
//
MOLECULE: CCSC(=O)[C@]1([C@@H](O)C(C)C)NC(=O)[C@H](C)[C@@H]1O
MCC [µM]: 1.56
//
MOLECULE: CC(C)[C@H](O)[C@@]1(C(=O)SCCN)NC(=O)[C@H](C)[C@@H]1O
MCC [µM]: 25
//
MOLECULE: CC(SC(=O)[C@]1([C@@H](O)C(C)C)NC(=O)[C@H](C)[C@@H]1O)C(=O)NCC(=O)O (stereo partly shown)
MCC [µM]: 12.5
//
MOLECULE: COC(=O)[C@]1([C@@H](O)C(C)C)NC(=O)[C@H](C)[C@@H]1O
MCC [µM]: 12.5

From: patent US5869675A
